B1: glmS ribozyme (parent)
chain: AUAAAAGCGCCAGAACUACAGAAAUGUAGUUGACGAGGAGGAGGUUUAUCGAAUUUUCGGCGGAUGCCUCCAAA

- Variants of: B1
- PROCEDURE_SUMMARY: self-cleavage kobs at 160 uM GlcN6P; higher = faster cleavage; RNA array
- CONDITION_NOTES: with glucosamine-6-phosphate
Variants at the floor of the assay were thinned out.
EXPERIMENTAL_READOUT: self-cleavage kobs at 160 uM GlcN6P

Notebook: A6U C11G U30G U31A A42U , self-cleavage kobs at 160 uM GlcN6P read as < 1e-05 s⁻¹

self-cleavage kobs at 160 uM GlcN6P reported for this variant U30G C34A : < 1e-05 s⁻¹

// self-cleavage kobs at 160 uM GlcN6P lookup, variant = C8A C68A , result: < 1e-05 s⁻¹

Briefly, self-cleavage kobs at 160 uM GlcN6P measured for U47G A53C : 0.000223 s⁻¹

Documented self-cleavage kobs at 160 uM GlcN6P of A14U C50U G51U : < 1e-05 s⁻¹

The variant A15C G29U C67A showed self-cleavage kobs at 160 uM GlcN6P equal to 9.38e-05 s⁻¹

Form field self-cleavage kobs at 160 uM GlcN6P, entry U45A A64G : 0.00526 s⁻¹

// sample C16U U31C C68U , its self-cleavage kobs at 160 uM GlcN6P was 6.38e-05 s⁻¹

Query G29C U30G yields self-cleavage kobs at 160 uM GlcN6P of 0.000309 s⁻¹

Per the record, C34A G35C has self-cleavage kobs at 160 uM GlcN6P of < 1e-05 s⁻¹

The value of self-cleavage kobs at 160 uM GlcN6P measured for the variant A15G G59C turned out to be < 1e-05 s⁻¹

self-cleavage kobs at 160 uM GlcN6P reported for this variant A42G U49C : < 1e-05 s⁻¹

Reported self-cleavage kobs at 160 uM GlcN6P ( G44A C71G ) = < 1e-05 s⁻¹

Short answer for A33C G59C C61G A64G : self-cleavage kobs at 160 uM GlcN6P was < 1e-05 s⁻¹

Just so you know, measured self-cleavage kobs at 160 uM GlcN6P for A36G G60A came out at < 1e-05 s⁻¹

Measured self-cleavage kobs at 160 uM GlcN6P, U46G U65A C71U : 0.000191 s⁻¹

Consider G43C A52U . Its measured self-cleavage kobs at 160 uM GlcN6P is < 1e-05 s⁻¹

Recorded result, C11A A15G , self-cleavage kobs at 160 uM GlcN6P: 3.04e-05 s⁻¹

For reference, reported self-cleavage kobs at 160 uM GlcN6P for C8G G63C stands at < 1e-05 s⁻¹

Noted for U45A U46C : its self-cleavage kobs at 160 uM GlcN6P reads 0.00197 s⁻¹

The value of self-cleavage kobs at 160 uM GlcN6P measured for the variant C10G C11A C16U G38U turned out to be < 1e-05 s⁻¹

get_value(item= C11A G59C , readout=self-cleavage kobs at 160 uM GlcN6P) returns < 1e-05 s⁻¹

Consider A6G A42G . Its measured self-cleavage kobs at 160 uM GlcN6P is 2.26e-05 s⁻¹

Short answer for A15C G40A U45A C70G : self-cleavage kobs at 160 uM GlcN6P was < 1e-05 s⁻¹

self-cleavage kobs at 160 uM GlcN6P reported for this variant A36C G41C : < 1e-05 s⁻¹

According to the records, this variant C10A A48C U56C displays self-cleavage kobs at 160 uM GlcN6P of < 1e-05 s⁻¹

Quick note, self-cleavage kobs at 160 uM GlcN6P for G7C G32U A36U G40U A42U A52G landed at < 1e-05 s⁻¹

Value of measured self-cleavage kobs at 160 uM GlcN6P for the entry U30G C71G : 6.06e-05 s⁻¹
